Measured PBM binding z-score of individual entries
- Test system: LXRb:RXRa (NR concentration 270 nM, RXRa partner concentration 90 nM)
- Assay Procedure: PBM binding z-score (relative to random genomic background probes); higher = stronger binding; sequences stand for … in GC…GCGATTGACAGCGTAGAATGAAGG

| Sequence Data | PBM binding z-score |
| --- | --- |
| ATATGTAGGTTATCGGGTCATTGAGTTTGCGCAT | 2.94 |
| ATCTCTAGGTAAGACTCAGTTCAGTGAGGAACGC | -0.0789 |
| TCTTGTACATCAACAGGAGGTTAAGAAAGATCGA | 1.13 |
| CATACAGGGTCAACTAGGCCAGAGTAGGGACGGC | 4.1 |
| TCTTATAGGTAAACAGGTGAAAGTCCGTAAGTTA | 0.875 |
| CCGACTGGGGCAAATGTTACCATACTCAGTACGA | 0.411 |
| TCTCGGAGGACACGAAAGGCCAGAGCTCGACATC | -0.341 |
| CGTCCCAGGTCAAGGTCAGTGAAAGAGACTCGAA | 3.68 |
| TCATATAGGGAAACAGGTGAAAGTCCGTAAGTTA | 1.11 |
| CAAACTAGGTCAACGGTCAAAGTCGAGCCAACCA | 3.09 |
| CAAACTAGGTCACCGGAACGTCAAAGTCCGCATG | 2.42 |
| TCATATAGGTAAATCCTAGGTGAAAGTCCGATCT | 0.537 |
| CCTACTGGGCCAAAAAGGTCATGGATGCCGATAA | 4.13 |
| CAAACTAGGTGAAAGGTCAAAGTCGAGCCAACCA | 6.08 |
| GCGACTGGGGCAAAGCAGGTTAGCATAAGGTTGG | -0.43 |
| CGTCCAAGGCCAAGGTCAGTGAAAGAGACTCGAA | 1.21 |
| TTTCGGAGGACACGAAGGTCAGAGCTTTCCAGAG | 1.61 |
| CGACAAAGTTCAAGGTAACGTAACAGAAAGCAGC | 3.29 |
| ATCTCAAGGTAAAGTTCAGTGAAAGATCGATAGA | 1.42 |
| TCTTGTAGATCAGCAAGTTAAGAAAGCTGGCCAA | -0.0484 |
| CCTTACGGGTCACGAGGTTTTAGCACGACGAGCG | 3.4 |

* * *

- System: RXRa homodimer (NR concentration 180 nM)
- Assay Procedure: PBM binding z-score (relative to random genomic background probes); higher = stronger binding; sequences stand for … in GC…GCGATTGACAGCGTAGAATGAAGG
Respond with YES for PBM binding z-score values of 3 and above, NO for values below.

| Sequence Data | Assigned Category |
| --- | --- |
| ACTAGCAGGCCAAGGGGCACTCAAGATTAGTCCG | NO |
| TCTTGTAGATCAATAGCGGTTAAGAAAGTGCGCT | NO |
| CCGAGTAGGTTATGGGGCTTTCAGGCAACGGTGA | NO |
| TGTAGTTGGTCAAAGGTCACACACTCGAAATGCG | YES |
| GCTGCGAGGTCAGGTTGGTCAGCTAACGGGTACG | YES |
| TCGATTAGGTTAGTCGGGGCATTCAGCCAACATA | NO |
| CGTCAAAGTTCAAGGTAACGAAACAGAAAGCAGC | YES |
| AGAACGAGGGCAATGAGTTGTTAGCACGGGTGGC | NO |
| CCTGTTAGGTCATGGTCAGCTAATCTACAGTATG | NO |
| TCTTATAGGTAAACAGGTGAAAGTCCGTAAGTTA | NO |
| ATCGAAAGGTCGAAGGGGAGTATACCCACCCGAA | YES |
| CGTCCAAGGTCAATGCTAGGTGAGTGAAAGCATT | YES |
| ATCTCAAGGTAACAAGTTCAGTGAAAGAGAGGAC | NO |
| CGTCCAAGGTCAGCGAGGTCAGTGAATGCCGAGT | YES |
| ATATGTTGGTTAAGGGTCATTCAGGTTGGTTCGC | YES |
